Provide the recorded pIC50 for the entries that follow.
# TARGET_OR_TEST_SYSTEM: focal adhesion kinase (FAK) autophosphorylation at tyrosine 397 in HT29 cells (Homo sapiens, UniProt Q05397)
# Construct: endogenous in cells; host or cells: HT29
# Sequence (Q05397 whole entry): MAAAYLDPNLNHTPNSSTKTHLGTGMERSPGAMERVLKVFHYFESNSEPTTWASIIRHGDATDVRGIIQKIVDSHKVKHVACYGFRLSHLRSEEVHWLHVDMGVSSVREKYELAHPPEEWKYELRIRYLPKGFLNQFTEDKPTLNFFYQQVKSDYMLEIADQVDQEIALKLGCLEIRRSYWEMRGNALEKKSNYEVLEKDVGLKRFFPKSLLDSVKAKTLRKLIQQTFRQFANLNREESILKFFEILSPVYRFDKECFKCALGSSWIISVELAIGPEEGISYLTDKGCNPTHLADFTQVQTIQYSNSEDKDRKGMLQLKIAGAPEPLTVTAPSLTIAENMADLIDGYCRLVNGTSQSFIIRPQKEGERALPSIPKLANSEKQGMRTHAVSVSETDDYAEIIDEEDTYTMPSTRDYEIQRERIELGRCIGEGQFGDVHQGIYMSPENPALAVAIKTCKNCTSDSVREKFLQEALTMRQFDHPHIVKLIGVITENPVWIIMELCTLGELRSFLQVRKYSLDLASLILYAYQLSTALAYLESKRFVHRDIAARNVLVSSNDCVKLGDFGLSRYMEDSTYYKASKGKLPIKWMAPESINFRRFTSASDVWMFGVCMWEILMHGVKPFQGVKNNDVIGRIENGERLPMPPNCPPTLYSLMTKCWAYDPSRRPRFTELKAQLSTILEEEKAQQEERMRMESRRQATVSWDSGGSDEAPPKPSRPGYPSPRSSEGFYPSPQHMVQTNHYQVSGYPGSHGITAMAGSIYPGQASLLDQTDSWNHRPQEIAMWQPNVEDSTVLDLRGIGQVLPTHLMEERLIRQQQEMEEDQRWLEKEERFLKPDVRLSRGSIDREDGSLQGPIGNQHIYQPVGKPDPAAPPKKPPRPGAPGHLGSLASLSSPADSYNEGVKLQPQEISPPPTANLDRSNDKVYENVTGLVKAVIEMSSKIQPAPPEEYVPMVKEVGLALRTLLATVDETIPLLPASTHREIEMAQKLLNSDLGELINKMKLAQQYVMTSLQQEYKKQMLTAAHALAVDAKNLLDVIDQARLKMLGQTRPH
# TEST_PROTOCOL: Cellular testing of FAK inhibitors: FAK autophosphorylation at tyrosine 397 in HT29 cells (Luminex-based assay)
# Assay type: cell-based
# CONDITION_DESCRIPTION: Table 3, phospho-Y397-FAK, 30 min serum-free, read-out: HT-29 IC50
pIC50: −log10 of the molar value.

Data request: Which pIC50 is reported for this molecule? Fc1ccc(CNc2ccnc(-c3cncc(Cl)c3)n2)c(F)c1
Data returned: 6.00 to 7.00

Data request: Which pIC50 is reported for this molecule? Nc1ncccc1-c1nccc(NCc2ccc(F)cc2F)n1
Data returned: < 5.00

Data request: Which pIC50 is reported for this molecule? Fc1ccc(CNc2ccnc(-c3cncc(Cl)c3)n2)c(C(F)(F)F)c1
Data returned: 5.00 to 6.00

Data request: Which pIC50 is reported for this molecule? CC(Nc1ccnc(-c2cccnc2N)n1)c1ccccc1C(F)(F)F (centres unmarked)
Data returned: < 5.00

Data request: Which pIC50 is reported for this molecule? Clc1cncc(-c2nccc(NCc3cccc4nsnc34)n2)c1
Data returned: < 5.00

###

# TARGET_OR_TEST_SYSTEM: focal adhesion kinase (FAK) autophosphorylation at tyrosine 397 in HT29 cells (Homo sapiens, UniProt Q05397)
# Construct: endogenous in cells; host or cells: HT29
# TEST_PROTOCOL: Cellular testing of FAK inhibitors: FAK autophosphorylation at tyrosine 397 in HT29 cells (Luminex-based assay)
# Type: cell-based
# CONDITION_DESCRIPTION: Table 3, phospho-Y397-FAK, 30 min serum-free, read-out: HT-29 IC50
MEASUREMENT_LABEL: IC50

Data request: Which IC50 is reported for this compound? CC(Nc1ccnc(-c2cncc(Cl)c2)n1)c1ccccc1C(F)(F)F (centres unmarked) [Compound 124]
Data returned: 1 to 10 µM

Data request: Which IC50 is reported for this compound? FC(F)(F)c1ccccc1CNc1ccnc(-c2cccnc2)n1 [Compound 89]
Data returned: > 10 µM

Data request: Which IC50 is reported for this compound? FC(F)(F)c1cncc(-c2nccc(NCc3ccccc3C(F)(F)F)n2)c1 [Compound 112]
Data returned: 1 to 10 µM

Data request: Which IC50 is reported for this compound? Fc1cncc(-c2nccc(NCc3ccccc3C(F)(F)F)n2)c1 [Compound 107]
Data returned: > 10 µM

Data request: Which IC50 is reported for this compound? Nc1ncccc1-c1nccc(NCc2ccc(F)cc2C(F)(F)F)n1 [Compound 110]
Data returned: 1 to 10 µM

###

# TARGET_OR_TEST_SYSTEM: GST-FAK (N-terminal GST fusion with truncated human FAK (376-1052 (end) amino acids)) (Homo sapiens, UniProt Q05397)
# Construct: truncated human FAK (376-1052 (end) amino acids)
# Sequence (Q05397 376-1052): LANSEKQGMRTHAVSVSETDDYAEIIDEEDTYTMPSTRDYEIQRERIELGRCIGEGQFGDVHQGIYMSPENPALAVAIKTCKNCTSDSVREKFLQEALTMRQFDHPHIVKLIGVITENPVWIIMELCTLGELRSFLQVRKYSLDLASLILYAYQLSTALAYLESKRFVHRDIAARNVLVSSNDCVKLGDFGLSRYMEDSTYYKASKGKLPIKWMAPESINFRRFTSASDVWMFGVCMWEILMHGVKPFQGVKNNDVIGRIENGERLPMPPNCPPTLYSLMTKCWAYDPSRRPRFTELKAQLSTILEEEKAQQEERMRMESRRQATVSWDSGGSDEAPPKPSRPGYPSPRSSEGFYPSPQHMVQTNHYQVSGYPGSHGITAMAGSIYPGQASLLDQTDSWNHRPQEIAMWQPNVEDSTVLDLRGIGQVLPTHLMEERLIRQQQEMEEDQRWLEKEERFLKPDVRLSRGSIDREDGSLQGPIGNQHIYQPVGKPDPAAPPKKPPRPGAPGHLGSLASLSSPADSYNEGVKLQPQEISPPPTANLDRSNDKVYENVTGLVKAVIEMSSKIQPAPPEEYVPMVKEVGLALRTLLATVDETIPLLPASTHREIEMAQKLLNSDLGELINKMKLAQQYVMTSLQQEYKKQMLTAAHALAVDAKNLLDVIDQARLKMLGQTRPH
# TEST_PROTOCOL: Biochemical enzyme assay for FAK activity (Caliper LC3000 mobility shift)
# CONDITION_DESCRIPTION: Table 3; 100 uM ATP; read-out: FAK IC50
MEASUREMENT_LABEL: IC50

Data request: Which IC50 is reported for this compound? Fc1ccc(CNc2ccnc(-c3cncc(Cl)c3)n2)c(F)c1
Data returned: < 100 nM

Data request: Which IC50 is reported for this compound? c1ccc(CNc2ccnc(-c3cccnc3)n2)cc1
Data returned: > 10000 nM

Data request: Which IC50 is reported for this compound? CN(C)c1ccccc1CNc1ccnc(-c2cccnc2N)n1
Data returned: 1000 to 10000 nM

Data request: Which IC50 is reported for this compound? Nc1ncc(Cl)cc1-c1nccc(NCc2ccc(F)cc2C(F)(F)F)n1
Data returned: < 100 nM

Data request: Which IC50 is reported for this compound? CNC[C@@H](Nc1ccnc(-c2cccnc2N)n1)c1cccc(F)c1
Data returned: > 10000 nM

Data request: Which IC50 is reported for this compound? Nc1ncccc1-c1cc(NCc2ccccc2C(F)(F)F)ccn1
Data returned: 1000 to 10000 nM

Data request: Which IC50 is reported for this compound? Nc1ncccc1-c1nccc(NCc2ccc(F)cc2F)n1
Data returned: 100 to 1000 nM

Data request: Which IC50 is reported for this compound? Nc1ncccc1-c1cccc(NCc2ccccc2F)c1
Data returned: > 10000 nM

Data request: Which IC50 is reported for this compound? Fc1cncc(-c2nccc(NCc3ccccc3C(F)(F)F)n2)c1
Data returned: 100 to 1000 nM
